Assay: gradient 5% acetonitrile 3 min, to 50% in 2 min, to 85% in 15 min, held 3 min, 100 µL/min
Conditions: column: Zorbax Extend-C18 2.1 x 50 mm; eluents: water / acetonitrile, 0.1% formic acid
Give measured RP-LC retention time for each item. Keep answers brief.
One number for each entry, in s.

molecule: CN1c2ccc(Cl)cc2C(=O)NC12CCN(C(=O)NCCc1ccccc1)CC2
quantity-unit: s
RP-LC retention time: 819

Field: RP-LC retention time. Fill in for each record below.
1. O=C(Cn1nc2c(N3CCSCC3)nccn2c1=O)NCCC1=CCCCC1
2. O=C(NCC(=O)N1CCCc2ccccc21)c1ccccc1Br
3. Cc1c(C(=O)NCC(C)C)c(C)n2cnn(CC(=O)NCCc3ccccc3)c(=O)c12
4. Cc1ccc(-n2nc3c(=O)n(C(C)C(=O)NC4CC4)nc(C)c3c2C)cc1 (centres undefined)
5. COc1ccc(CCc2nc(-c3ccc4c(c3)nc(C)c(=O)n4C)no2)cc1
6. Cc1ccc(N2CCC(NC(=O)Cc3ccc(Cl)cc3)C2=O)cc1C (centres undefined)
7. O=C(NCc1ccc(-c2nc(C3CC3)no2)s1)c1ccc(F)cc1F
8. Cc1ccnc(N2CCC(C(=O)NCCSCc3ccco3)CC2)n1

Output:
861
822
743
744
946
946
956
680

Field: RP-LC retention time. Fill in for each record below.
1. CCCNC(=O)CCc1c(C)n(C)c2nc(-c3ccccc3)nn2c1=O
2. COc1cccc(-n2ccc(=O)c(-c3nc(-c4cccc(OC)c4OC)no3)n2)c1
3. CCc1ccccc1NC(=O)N(C)CCc1noc(COc2ccccc2F)n1

Output:
[665, 826, 907]

----------
Test: gradient 5% acetonitrile 3 min, to 50% in 2 min, to 85% in 15 min, held 3 min, 100 µL/min
Conditions: column: Zorbax Extend-C18 2.1 x 50 mm; eluents: water / acetonitrile, 0.1% formic acid
readout-kind: RP-LC retention time (s)
One number for each entry, in s.

compound: Cc1cccc(-c2nc(-c3ccc(-n4ccnc4)nc3)no2)c1
quantity-unit: s
RP-LC retention time: 814

Field: RP-LC retention time. Fill in for each record below.
1. O=C1CC(C(F)(F)F)c2c(c(C(=O)O)cn2-c2cccc(Cl)c2)N1 (centres undefined)
2. CCc1nc(-c2csc(S(=O)(=O)N3CCC(C(=O)N4CCC5(CC4)OCCO5)CC3)c2)no1
3. Cc1sc(-c2nnc(C3CC3)o2)cc1NC(=O)Cc1ccccc1F
4. CCNC(=O)CN1C(=O)CCSc2ccccc21
5. CCN1CCCn2cc(S(=O)(=O)N3CCN(c4ccccn4)CC3)cc2C1=O

Output:
1: 786; 2: 816; 3: 944; 4: 664; 5: 577

----------
Experiment: gradient 5% acetonitrile 3 min, to 50% in 2 min, to 85% in 15 min, held 3 min, 100 µL/min
Conditions: column: Zorbax Extend-C18 2.1 x 50 mm; eluents: water / acetonitrile, 0.1% formic acid
Give measured RP-LC retention time for each item. Keep answers brief.
Numbers only, in s.

Reference set, count: 5
compound: CC(C)NC(=O)N(C1CC1)C1CCOC2(CCN(C(=O)C3(c4ccccc4)CC3)CC2)C1 (centres undefined)
RP-LC retention time, s: 865

compound: O=S(=O)(Cc1ccccc1)N1CCC(OCCOc2cccnc2)CC1
RP-LC retention time, s: 665

compound: Fc1ccc(-c2csc(Nc3ccc(Br)cn3)n2)cc1
RP-LC retention time, s: 1230

compound: Cc1nc2c(c(=O)n1CC(=O)NC1CCCC1)CCN(Cc1ccccc1)C2
RP-LC retention time, s: 602

compound: Cc1ccc(C(=O)NCCc2nc3cccnc3n2CC(C)C)cc1
RP-LC retention time, s: 716

Field: RP-LC retention time. Fill in for each record below.
1. COC(=O)c1c(NCCCN2CCCC2)c2cccc(Cl)c2[nH]c1=O
2. CC1(C)CC(=O)c2cn(-c3ccccc3)c(=O)c(C(=O)N3CCN(C4CCCCC4)CC3)c2C1

Output:
550
586

Field: RP-LC retention time. Fill in for each record below.
1. CCOC(=O)C1=C(CN2CCN(Cc3ccccc3)CC2)NC(=O)NC1c1cccc(OC)c1OC (centres undefined)
2. Cc1ccc(-c2nc(Nc3ccc(C)c(Cl)c3)sc2CC(=O)O)cc1

Output:
1: 660; 2: 1100

----------
Test: gradient 5% acetonitrile 3 min, to 50% in 2 min, to 85% in 15 min, held 3 min, 100 µL/min
Conditions: column: Zorbax Extend-C18 2.1 x 50 mm; eluents: water / acetonitrile, 0.1% formic acid
readout-kind: RP-LC retention time (s)
One number for each entry, in s.

Reference set, count: 6
compound: O=C(CN1C(=O)CCC1=O)NC1CCCC(OC(=O)Nc2ccc(F)cc2)C1 (centres undefined)
RP-LC retention time, s: 674

compound: CCC1CCCCN1C(=O)c1cnc2nc(C)ccc2c1Nc1ccc(F)cc1C (centres undefined)
RP-LC retention time, s: 703

compound: Cc1ccc(Nc2c(-c3ccc(N4CCOCC4)cc3)nc3ncccn23)cc1C
RP-LC retention time, s: 716

compound: Cc1cccc(-c2noc(Cn3c(=O)n(Cc4ccco4)c(=O)c4ccccc43)n2)c1
RP-LC retention time, s: 1090

compound: Cc1ccc(S(=O)(=O)N2CCC(CC(=O)N3CCN(c4ccccn4)CC3)CC2)cc1
RP-LC retention time, s: 701

compound: CCOC(=O)Cc1nnc(-c2ccc(Br)cc2)o1
RP-LC retention time, s: 903

Field: RP-LC retention time. Fill in for each record below.
1. CCOC(=O)C(C)NC(=O)N1CCN(c2nc3ccccc3nc2C(F)(F)F)CC1 (centres undefined)
2. Cn1c(=O)n(C)c2cc(CNCCC3=CCCCC3)ccc21
3. CCOC(=O)c1ccccc1NC(=O)C1CCCN(c2ncnc3c2nc2n3CCCCC2)C1 (centres undefined)

Output:
1: 921; 2: 600; 3: 876

----------
Test: gradient 5% acetonitrile 3 min, to 50% in 2 min, to 85% in 15 min, held 3 min, 100 µL/min
Conditions: column: Zorbax Extend-C18 2.1 x 50 mm; eluents: water / acetonitrile, 0.1% formic acid
Give measured RP-LC retention time for each item. Keep answers brief.
Numbers only, in s.

Reference set, count: 4
compound: COc1ccc(C(=O)NCc2cnoc2-c2ccc(F)cc2)cc1OC
RP-LC retention time (s): 820
--
compound: COc1cc(-c2noc(C3CC(=O)N(c4ccc(C)c(Cl)c4)C3)n2)cc(OC)c1OC (stereo not given)
RP-LC retention time (s): 1050
--
compound: CCOc1ccc(-c2cn3ccn(-c4ccc(Cl)cc4)c(=O)c3n2)cc1
RP-LC retention time (s): 962
--
compound: O=C(Cc1ccccc1Br)NC1CCN(c2cc(-c3cccs3)[nH]n2)C1 (stereo not given)
RP-LC retention time (s): 689

Let's switch to this compound now.
Input: Requested read-out: RP-LC retention time. Entry: Cc1ccc(Cl)cc1NC(=O)C1CC(=O)N(c2ccc3c(c2)CCN3C(=O)C2CC2)C1 (stereo not given)
Output: 821

----------
Assay: gradient 5% acetonitrile 3 min, to 50% in 2 min, to 85% in 15 min, held 3 min, 100 µL/min
Settings: column: Zorbax Extend-C18 2.1 x 50 mm; eluents: water / acetonitrile, 0.1% formic acid
readout-kind: RP-LC retention time

Reference set, count: 2
compound: CN(C)S(=O)(=O)c1ccc2c(c1)N(CC(=O)Nc1ccc(Cl)cc1)C(=O)C1CCCCN21 (centres undefined)
RP-LC retention time: 988 s

compound: CC(=O)OCC(=O)[C@@]12N=C(C)O[C@@H]1C[C@H]1[C@@H]3CCC4=CC(=O)C=C[C@]4(C)[C@H]3[C@@H](O)C[C@@]12C
RP-LC retention time: 862 s

Field: RP-LC retention time. Fill in for each record below.
1. CCCn1nnc(NCc2ccc(-c3cc(Cl)cc(Cl)c3)o2)n1
2. O=S(=O)(Cc1ccccc1Cl)NCC1CCN(Cc2ccsc2)CC1
3. COc1ccccc1N1CCN(C(=S)Nc2ccc3nc(N4CCN(C)CC4)cc(C)c3c2)CC1
4. O=C(Nc1ccc(Br)cc1F)C1CCCN(C(=O)c2ccccc2F)C1 (centres undefined)
5. Cc1nc2cc(-c3noc(Cc4cccc(Cl)c4)n3)ccc2o1
6. Cc1cc(OCCCCOc2ccc(C#N)cc2)ccc1[N+](=O)[O-]

Output:
1. 1210 s
2. 588 s
3. 586 s
4. 943 s
5. 1070 s
6. 1250 s

----------
Assay: gradient 5% acetonitrile 3 min, to 50% in 2 min, to 85% in 15 min, held 3 min, 100 µL/min
Settings: column: Zorbax Extend-C18 2.1 x 50 mm; eluents: water / acetonitrile, 0.1% formic acid
readout-kind: RP-LC retention time (s)
Numbers only, in s.

Reference set, count: 3
compound: O=C(Oc1ccccc1)N1CCC(CNS(=O)(=O)/C=C/c2ccccc2)CC1
quantity-unit: s
RP-LC retention time: 912
//
compound: Cc1nc(N2CCOCC2)cc(N2CCN(C(=O)c3cccs3)CC2)n1
quantity-unit: s
RP-LC retention time: 607
//
compound: Cc1noc(C)c1CC(=O)N1CC(n2cc(COc3ccc(F)cc3)nn2)C1
quantity-unit: s
RP-LC retention time: 721

Field: RP-LC retention time. Fill in for each record below.
1. O=C(CCn1nnc2cc(-c3noc(-c4cccc(F)c4)n3)ccc21)N1CCCC1
2. N#CC1=C(N)Oc2c(ccc3cccnc23)C1c1ccccc1 (stereo not given)
3. CC(C)N1CCN(Cc2ccc(C(=O)NC3CCCCCC3)cc2)C(=O)C1=O
4. CC1(CNS(=O)(=O)c2ccc(F)c(Cl)c2)CCOCC1
5. CSc1ncn(-c2nc(NC(C)C)nc(NC(C)C)n2)n1
6. COc1ccc(-n2c(=O)n(C)c(=O)c3cc(C(=O)NCc4ccco4)cnc32)cc1

Output:
1: 928; 2: 768; 3: 749; 4: 861; 5: 875; 6: 764

Field: RP-LC retention time. Fill in for each record below.
1. Cc1ccc(C)c(NC(=O)c2cn(-c3cc(-c4nc(C5CC5)no4)ccn3)cn2)c1
2. Cc1csc(-c2cc(S(=O)(=O)NCCN3CCC(C)CC3)cn2CC(=O)N2CCCCC2)n1
3. Cc1cc(C)c2c(N3CCSCC3)nc(C(=O)NCc3cccs3)nc2n1

Output:
1: 1100; 2: 679; 3: 746

Field: RP-LC retention time. Fill in for each record below.
1. CN(C)C(=O)c1ccc2c(c1)nnn2CCNC(=O)Nc1ccccc1Br
2. CC(=O)Nc1ccc(CC(=O)O)cc1
3. CC(NC(=O)CCCn1c(=O)c2cccn2c2ccc(Br)cc21)C(=O)N1CCCCC1 (stereo not given)

Output:
[675, 620, 832]

Field: RP-LC retention time. Fill in for each record below.
1. c1ccc(-c2nc(-c3cccc(-c4ccn[nH]4)c3)no2)cc1
2. Cc1cccc(-n2cc(C(=O)OCC(=O)OC(C)C)c3ccccc3c2=O)c1
3. Cc1ccc(-c2cc(-c3nc4c5ccccc5ncn4n3)[nH]n2)c(C)c1
4. COCC(=O)Nc1cnc(-c2cccc(Cl)c2)nc1
5. CC1CCN(C(=O)c2cn(-c3cc(N4CCSCC4)ncn3)cn2)CC1

Output:
1. 966
2. 1130
3. 900
4. 872
5. 858
